Tested on: cysteine-containing peptide for DPRA
experimental-protocol: Skin sensitization test (direct peptide reactivity assay, DPRA)
run-conditions: HPLC after 72±2 hours, relative value with result of Comparative Example 1 regarded as 100
Protocol: The product 1, 3-butylene glycol in the present embodiment causes less skin sensitization. Here, the skin sensitization refers to the occurrence of an allergic reaction after the product 1, 3-butylene glycol comes into contact with the skin. […] In more detail, the skin sensitization is evaluated according to a method described in examples to be described below. […]
reported-property: Relative value of peptide reduction percentage
Just the number, please.

Look up Relative value of peptide reduction percentage: CC(O)CCO (stereo not shown) [Example 3, 1,3-butylene glycol]
22

Look up Relative value of peptide reduction percentage: CC(O)CCO (stereo not shown) [Example 1, 1,3-butylene glycol]
45

Look up Relative value of peptide reduction percentage: CC(O)CCO (stereo not shown) [Example 2, 1,3-butylene glycol]
43

Look up Relative value of peptide reduction percentage: CC(O)CCO (stereo not shown) [Comparative Example 1, 1,3-butylene glycol]
100
